IC50 reference
# tested_target: human TPH1 (Homo sapiens (Human), UniProt P17752)
# Sequence (P17752 whole entry): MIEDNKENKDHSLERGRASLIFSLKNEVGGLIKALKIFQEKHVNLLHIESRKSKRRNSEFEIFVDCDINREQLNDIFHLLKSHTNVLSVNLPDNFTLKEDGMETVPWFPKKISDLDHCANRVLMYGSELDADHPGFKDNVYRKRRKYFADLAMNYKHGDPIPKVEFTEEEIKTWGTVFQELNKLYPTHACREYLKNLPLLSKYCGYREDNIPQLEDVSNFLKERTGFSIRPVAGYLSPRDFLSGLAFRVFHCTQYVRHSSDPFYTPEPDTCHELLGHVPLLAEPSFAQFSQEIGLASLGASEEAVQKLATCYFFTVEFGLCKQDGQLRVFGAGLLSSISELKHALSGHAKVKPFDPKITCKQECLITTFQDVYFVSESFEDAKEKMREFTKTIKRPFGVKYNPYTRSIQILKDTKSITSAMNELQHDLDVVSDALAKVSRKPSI
# assay_method_text: Biochemical in vitro assay using fluorescence readout (TPH1 inhibition)
# measurement_context: human TPH1, fluorescence readout
value_type: IC50 (nM)

>>> recorded_result("CS(=O)(=O)Nc1ccc(OCC(=O)N2CCc3nc4sccn4c3C2c2sccc2F)c(Cl)c1 (stereo not drawn)")
9
>>> recorded_result("Cc1nc(C)c(C2c3c(nc4sc(C)nn34)CCN2C(=O)COc2ccc(-c3ncco3)nc2Cl)s1 (stereo not drawn)")
9
>>> recorded_result("Cc1nn2c3c(nc2s1)CCN(C(=O)COc1ccc(C(=O)NC2CC2)nc1C1CC1)C3c1ccc(Cl)cc1F (stereo not drawn)")
9
